Data credit: patent US20170066831A1

measured.target: T1, human ST2L extracellular domain with C-terminal His6 tag (human, UniProt Q01638 19-328)
T1 construct: also called huST2L-ECD; ST2L-ECD
T1 sequence: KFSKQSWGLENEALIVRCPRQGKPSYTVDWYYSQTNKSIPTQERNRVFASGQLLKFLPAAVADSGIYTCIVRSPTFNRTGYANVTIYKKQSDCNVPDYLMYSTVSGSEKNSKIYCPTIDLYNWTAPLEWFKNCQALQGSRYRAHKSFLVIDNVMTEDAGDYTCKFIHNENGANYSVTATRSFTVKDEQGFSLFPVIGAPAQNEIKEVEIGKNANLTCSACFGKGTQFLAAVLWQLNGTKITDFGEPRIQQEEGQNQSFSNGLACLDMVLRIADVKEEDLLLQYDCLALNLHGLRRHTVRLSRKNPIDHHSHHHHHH
experiment.notes: ProteOn SPR, mAb captured, ST2L-ECD in solution
pKd: −log10 of the molar value.

{"binder": "STLM197 (antibody, V domains shown, C2494 HFA mAb: VH STLH194 (IGHV1-f*01) + VL STLL280 (O12b)) VH: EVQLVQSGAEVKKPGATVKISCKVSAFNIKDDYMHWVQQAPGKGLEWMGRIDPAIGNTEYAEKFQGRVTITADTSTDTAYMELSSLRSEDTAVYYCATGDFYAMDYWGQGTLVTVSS VL: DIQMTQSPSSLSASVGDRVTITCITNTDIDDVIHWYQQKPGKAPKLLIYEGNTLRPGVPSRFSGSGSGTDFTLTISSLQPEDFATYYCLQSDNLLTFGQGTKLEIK", "pKd": 10.05}
{"binder": "STLM192 (antibody, V domains shown, C2494 HFA mAb: VH STLH195 + VL STLL275 (L5)) VH: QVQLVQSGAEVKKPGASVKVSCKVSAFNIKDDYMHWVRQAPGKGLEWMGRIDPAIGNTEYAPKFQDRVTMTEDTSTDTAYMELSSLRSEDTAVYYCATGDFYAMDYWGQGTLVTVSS VL: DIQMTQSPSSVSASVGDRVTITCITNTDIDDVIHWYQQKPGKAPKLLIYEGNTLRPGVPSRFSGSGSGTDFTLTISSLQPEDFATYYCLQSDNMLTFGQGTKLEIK", "pKd": 9.38}
{"binder": "STLM62 (antibody, human IgG2, V domains shown, Mouse hybridoma C2494 cloned into human IgG2 background (STLM62); also called C2494) VH: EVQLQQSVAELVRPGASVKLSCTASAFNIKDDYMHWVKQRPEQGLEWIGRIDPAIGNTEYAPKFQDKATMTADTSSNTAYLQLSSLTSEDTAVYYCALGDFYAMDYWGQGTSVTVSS VL: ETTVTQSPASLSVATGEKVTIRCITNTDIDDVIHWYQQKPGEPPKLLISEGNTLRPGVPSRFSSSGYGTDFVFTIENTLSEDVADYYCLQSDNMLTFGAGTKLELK", "pKd": 11.06}
